Kindly state Fold/wt for each of the entries shown.
# system: Bcl-2
# Sequence (chain, as listed by the source): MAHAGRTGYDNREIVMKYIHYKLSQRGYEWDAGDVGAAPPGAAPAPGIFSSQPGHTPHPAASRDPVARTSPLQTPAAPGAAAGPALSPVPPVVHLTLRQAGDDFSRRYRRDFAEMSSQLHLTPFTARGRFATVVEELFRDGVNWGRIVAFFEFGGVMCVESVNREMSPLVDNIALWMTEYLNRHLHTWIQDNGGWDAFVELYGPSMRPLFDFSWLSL
# test-method-notes: competition phage ELISA
One number for each entry, in fold.

Example entries begin here.
Task item: Please report the recorded Fold/wt for NLWAAQRYGRELRRMSDEFVDSFKAG (M13 phage display: FLAG-26mer-GGGT-g3(249-406)) [Bad BH3 K25A, phage-displayed] .
Reply: 1

Task item: Please report the recorded Fold/wt for NLWAAARYGRELRRMSDEFVDSFKKG (M13 phage display: FLAG-26mer-GGGT-g3(249-406)) [Bad BH3 Q6A, phage-displayed] .
Reply: 1

Task item: Please report the recorded Fold/wt for NLWAAQRYGRELRRMSDAFVDSFKKG (M13 phage display: FLAG-26mer-GGGT-g3(249-406)) [Bad BH3 E18A, phage-displayed] .
Reply: 2

Provide each entry's Fold/wt from the list below.
1. NLWAAQRYGRELRRMSDEFVDSFKKG (M13 phage display: FLAG-26mer-GGGT-g3(249-406); also called wtBad) [Bad BH3 wild type, phage-displayed]
2. NLWAAQAYGRELRRMSDEFVDSFKKG (M13 phage display: FLAG-26mer-GGGT-g3(249-406)) [Bad BH3 R7A, phage-displayed]

Reply:
[1, 1]

Provide each entry's Fold/wt from the list below.
1. ALWAAQRYGRELRRMSDEFVDSFKKG (M13 phage display: FLAG-26mer-GGGT-g3(249-406)) [Bad BH3 N1A, phage-displayed]
2. NLWAAQRYGRELRRMSDEFVDSFAKG (M13 phage display: FLAG-26mer-GGGT-g3(249-406)) [Bad BH3 K24A, phage-displayed]
3. NLWAEQRYGRELRRMSDEFVDSFKKG (M13 phage display: FLAG-26mer-GGGT-g3(249-406)) [Bad BH3 A5E, phage-displayed]
4. NLWAAQRYGRELRRASDEFVDSFKKG (M13 phage display: FLAG-26mer-GGGT-g3(249-406)) [Bad BH3 M15A, phage-displayed]
5. NLWAAQRYGAELRRMSDEFVDSFKKG (M13 phage display: FLAG-26mer-GGGT-g3(249-406)) [Bad BH3 R10A, phage-displayed]
6. NLAAAQRYGRELRRMSDEFVDSFKKG (M13 phage display: FLAG-26mer-GGGT-g3(249-406)) [Bad BH3 W3A, phage-displayed]
7. NAWAAQRYGRELRRMSDEFVDSFKKG (M13 phage display: FLAG-26mer-GGGT-g3(249-406)) [Bad BH3 L2A, phage-displayed]
8. NLWAAQRYGRELRAMSDEFVDSFKKG (M13 phage display: FLAG-26mer-GGGT-g3(249-406)) [Bad BH3 R14A, phage-displayed]

Reply:
1
1
2
3
1
1
1
5

Provide each entry's Fold/wt from the list below.
1. NLWAAQRYGRELARMSDEFVDSFKKG (M13 phage display: FLAG-26mer-GGGT-g3(249-406)) [Bad BH3 R13A, phage-displayed]
2. NLWAAQRYGRELRRMSDEFADSFKKG (M13 phage display: FLAG-26mer-GGGT-g3(249-406)) [Bad BH3 V20A, phage-displayed]
3. NLWEAQRYGRELRRMSDEFVDSFKKG (M13 phage display: FLAG-26mer-GGGT-g3(249-406)) [Bad BH3 A4E, phage-displayed]
4. NLWAAQRYGRELRRMSDEFVDAFKKG (M13 phage display: FLAG-26mer-GGGT-g3(249-406)) [Bad BH3 S22A, phage-displayed]
5. NLWAAQRYGRELRRMSDEFVASFKKG (M13 phage display: FLAG-26mer-GGGT-g3(249-406)) [Bad BH3 D21A, phage-displayed]

Reply:
1: 1; 2: 1; 3: 1; 4: 1; 5: 1
